We begin with a simple list: items and their reported clearance.
assay: Clearance in Chimpanzee at 0.5 mg/kg administered as iv infusion
Format: ADME, organism-based, Pan troglodytes
run conditions: in vivo

>  <chem smiles>
CC[C@H](C)C[C@H](C)CCCCCCCCC(=O)N[C@H]1C[C@@H](O)[C@@H](OCCN)NC(=O)[C@@H]2[C@@H](O)CCN2C(=O)[C@H]([C@H](O)CCN)NC(=O)[C@H]([C@H](O)[C@@H](O)c2ccc(O)cc2)NC(=O)[C@@H]2C[C@@H](O)CN2C(=O)[C@H]([C@@H](C)O)NC1=O

>  <clearance>
0.56 mL/min/kg

$$$$
>  <chem smiles>
CC[C@H](C)C[C@H](C)CCCCCCCCC(=O)N[C@H]1C[C@@H](O)[C@@H](NCCN)NC(=O)[C@@H]2[C@@H](O)CCN2C(=O)[C@H]([C@H](O)CCN)NC(=O)[C@H]([C@H](O)[C@@H](O)c2ccc(O)cc2)NC(=O)[C@@H]2C[C@@H](O)CN2C(=O)[C@H]([C@@H](C)O)NC1=O

>  <clearance>
0.21 mL/min/kg

$$$$
